tested on: Streptococcus pneumoniae; test: Inhibitory concentration against Streptococcus pneumoniae translation; type: functional, organism-based
READOUT NAME: pIC50
Convention used: pIC50 is expressed as -log10 of the molar concentration.

* COc1c(F)c(N2CCC(N)C2)nc2ncc(C(=O)O)c(O)c12 (stereo not given) | 5.40

IN: Please give the measured pIC50 for this compound: NC1CCN(c2nc3ncc(C(=O)O)c(O)c3cc2F)C1 (stereo not given)
OUT: 5.15

IN: Please give the measured pIC50 for this compound: NC1CCN(c2nc3ncc(C(=O)O)c(O)c3c(O)c2F)C1 (stereo not given)
OUT: 4.77

IN: Please give the measured pIC50 for this compound: O=C(O)c1cnc2nc(N3CCC3)c(F)cc2c1O
OUT: 5.30

IN: Please give the measured pIC50 for this compound: COc1c(F)c(N2CCCC2)nc2ncc(C(=O)O)c(O)c12
OUT: 4.49

IN: Please give the measured pIC50 for this compound: O=C(O)c1cnc2nc(N3CCCC3)c(F)c(O)c2c1O
OUT: 4.29

IN: Please give the measured pIC50 for this compound: COc1c(F)c(N2CCC2)nc2ncc(C(=O)O)c(O)c12
OUT: 4.85

IN: Please give the measured pIC50 for this compound: O=C(O)c1cnc2nc(N3CCCC3)c(F)cc2c1O
OUT: 5.00

IN: Please give the measured pIC50 for this compound: O=C(O)c1cnc2nc(N3CCC3)c(F)c(O)c2c1O
OUT: 3.70
